subject of test: UniProt P03372
Sequence (P03372 1-595): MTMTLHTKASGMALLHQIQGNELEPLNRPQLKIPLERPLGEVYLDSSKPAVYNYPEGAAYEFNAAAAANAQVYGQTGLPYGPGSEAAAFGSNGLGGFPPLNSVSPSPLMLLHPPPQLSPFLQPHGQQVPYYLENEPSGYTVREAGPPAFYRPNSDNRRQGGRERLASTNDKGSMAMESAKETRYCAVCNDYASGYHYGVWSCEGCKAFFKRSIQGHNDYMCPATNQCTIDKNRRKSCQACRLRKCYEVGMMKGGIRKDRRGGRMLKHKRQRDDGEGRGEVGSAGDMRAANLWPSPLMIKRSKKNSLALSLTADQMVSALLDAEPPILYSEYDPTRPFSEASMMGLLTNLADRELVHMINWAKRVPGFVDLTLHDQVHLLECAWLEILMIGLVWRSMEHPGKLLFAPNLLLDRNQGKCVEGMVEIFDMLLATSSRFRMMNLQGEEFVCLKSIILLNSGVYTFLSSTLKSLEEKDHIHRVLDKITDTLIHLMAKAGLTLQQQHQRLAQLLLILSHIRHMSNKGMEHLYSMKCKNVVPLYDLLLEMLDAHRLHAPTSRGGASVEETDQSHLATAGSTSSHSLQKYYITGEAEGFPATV
protocol description: Degradation of ERα in T-47D cells (immunoblotting, 4 h)
Type: cell-based
Parameters: host or cells: T-47D
measurement context: 1nM compound
For each record, check the reported Degradation rate (%) of ERα in T-47D cells: if it is below 60% write criterion met, else write criterion not met.

Below are worked cases with known answers.
- compound: "O=C1CCC(N2Cc3c(ccc4c3OCC43CCN(CCN4CCC5(CCN(c6ccc([C@@H]7c8ccc(O)cc8CC[C@@H]7c7ccccc7)cc6)CC5)C4)CC3)C2=O)C(=O)N1 (some centres unmarked) [N4]"
  assigned label: "criterion not met"
- compound: "O=C1CCC(N2Cc3c(ccc4c3OCC43CCN(C(=O)C4CN(CC5CCN(c6ccc([C@@H]7c8ccc(O)cc8CC[C@@H]7c7ccccc7)cc6)CC5)C4)CC3)C2=O)C(=O)N1 (some centres unmarked) [K33]"
  assigned label: "criterion met"
- compound: "CN(C(=O)CN1CCC2(CC1)COc1c2ccc2c1C(=O)N(C1CCC(=O)NC1=O)C2=O)C1CCC2(CC1)CN(c1ccc([C@@H]3c4ccc(O)cc4CC[C@@H]3c3ccccc3)cc1)C2 (some centres unmarked) [K44]"
  assigned label: "criterion met"
- compound: "CCNC(=O)[C@H]1CC(N2CCC3(CC2)COc2c3ccc3c2CN(C2CCC(=O)NC2=O)C3=O)CCN1C1CC2(CCN(c3ccc([C@@H]4c5ccc(O)cc5CC[C@@H]4c4ccccc4)cc3)CC2)C1 (some centres unmarked) [K26]"
  assigned label: "criterion met"

Okay, next one:
Please state whether Degradation rate (%) of ERα in T-47D cells is below 60% for O=C1CCC(N2Cc3c(ccc4c3OCC43CCN(C(=O)CN4CC5(C4)CN(c4ccc([C@@H]6c7ccc(O)cc7CC[C@@H]6c6ccccc6)cc4)C5)CC3)C2=O)C(=O)N1 (some centres unmarked) [B20]
criterion met
